B1: PTPRD (parent)
chain: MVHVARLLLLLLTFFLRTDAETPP

Variants of: B1
METHOD: protein stability index of a GFP-peptide fusion (GPS, HEK-293T) (PSI 1-6); higher = more stable;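 further: lentivirally expressed fusions sorted by FACS into six bins by GFP to DsRed ratio, PSI derived from sequencing read proportions per bin multiplied by bin number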
REPORTED_CONDITIONS: c terminus: a fixed tail appended
MEASURE_NAME: protein stability index
// response body must contain only the number

The reported protein stability index of the variant `T22H` was 2.36

The reported protein stability index of the variant `M1T` was 2.87

The reported protein stability index of the variant `R17E` was 1.62

The reported protein stability index of the variant `A20L` was 2.99

The reported protein stability index of the variant `F14S` was 1.99

The reported protein stability index of the variant `L16N` was 2.12

The reported protein stability index of the variant `R6S` was 1.88

The reported protein stability index of the variant `T22E` was 2.08

The reported protein stability index of the variant `L16H` was 2.35

The reported protein stability index of the variant `P23Y` was 3.76

The reported protein stability index of the variant `V2D` was 2.92

Where do the numbers come from? From the supplement of paper PMC10567573.
